- particulars: in isopropanol, 313.15 K
attribute measured: solubility (mole fraction)

>>> print(df.to_string())
                       entry_smiles          attribute_measured  measured_value
0  CCOC(=O)Cc1c(C(=O)OCC)sc(N)c1C#N  solubility (mole fraction)          0.0168

---

- particulars: in isopropanol, 318.15 K
attribute measured: solubility (mole fraction)

In [3]: df
Out[3]:
                       entry_smiles  measured_value
0  CCOC(=O)Cc1c(C(=O)OCC)sc(N)c1C#N          0.0213

---

- particulars: in methanol, 288.15 K
attribute measured: solubility (mole fraction)

                       entry_smiles  measured_value
0  CCOC(=O)Cc1c(C(=O)OCC)sc(N)c1C#N         0.00947

---

- particulars: in n-propanol, 288.15 K
attribute measured: solubility (mole fraction)

In [3]: df
Out[3]:
                       entry_smiles          attribute_measured  measured_value
0  CCOC(=O)Cc1c(C(=O)OCC)sc(N)c1C#N  solubility (mole fraction)         0.00471

---

- particulars: in acetone, 273.15 K
attribute measured: solubility (mole fraction)

>>> df
                       entry_smiles  measured_value
0  CCOC(=O)Cc1c(C(=O)OCC)sc(N)c1C#N          0.0446

---

- particulars: in n-butanol, 308.15 K
attribute measured: solubility (mole fraction)

In [3]: df
Out[3]:
                       entry_smiles  measured_value
0  CCOC(=O)Cc1c(C(=O)OCC)sc(N)c1C#N          0.0114

---

- particulars: in isopropanol, 293.15 K
attribute measured: solubility (mole fraction)

                       entry_smiles  measured_value
0  CCOC(=O)Cc1c(C(=O)OCC)sc(N)c1C#N         0.00656

---

- particulars: in acetone, 283.15 K
attribute measured: solubility (mole fraction)

                       entry_smiles          attribute_measured  measured_value
0  CCOC(=O)Cc1c(C(=O)OCC)sc(N)c1C#N  solubility (mole fraction)          0.0558

---

- particulars: in acetone, 313.15 K
attribute measured: solubility (mole fraction)

>>> print(df.to_string())
                       entry_smiles  measured_value
0  CCOC(=O)Cc1c(C(=O)OCC)sc(N)c1C#N           0.113

---

- particulars: in isopropanol, 278.15 K
attribute measured: solubility (mole fraction)

                       entry_smiles  measured_value
0  CCOC(=O)Cc1c(C(=O)OCC)sc(N)c1C#N         0.00307

---

- particulars: in acetone, 293.15 K
attribute measured: solubility (mole fraction)

>>> df
                       entry_smiles          attribute_measured  measured_value
0  CCOC(=O)Cc1c(C(=O)OCC)sc(N)c1C#N  solubility (mole fraction)           0.071

---

- particulars: in ethanol, 283.15 K
attribute measured: solubility (mole fraction)

>>> print(df.to_string())
                       entry_smiles  measured_value
0  CCOC(=O)Cc1c(C(=O)OCC)sc(N)c1C#N         0.00505

---

- particulars: in ethanol, 313.15 K
attribute measured: solubility (mole fraction)

                       entry_smiles          attribute_measured  measured_value
0  CCOC(=O)Cc1c(C(=O)OCC)sc(N)c1C#N  solubility (mole fraction)          0.0186

---

- particulars: in acetonitrile, 318.15 K
attribute measured: solubility (mole fraction)

                       entry_smiles  measured_value
0  CCOC(=O)Cc1c(C(=O)OCC)sc(N)c1C#N          0.0455

---

- particulars: in n-propanol, 283.15 K
attribute measured: solubility (mole fraction)

>>> print(df.to_string())
                       entry_smiles  measured_value
0  CCOC(=O)Cc1c(C(=O)OCC)sc(N)c1C#N          0.0036
